Attribute: differential drug sensitivity score
# System: CDS-ZH002 direct (CIC-DUX4 sarcoma cells right after isolation)
# method_description: differential drug sensitivity score (dDSS) relative to sarcoma reference cohort mean DSS (DSS units (0-100 scale difference)); higher = more selective sensitivity than reference sarcomas
# condition: exposure time: 72 h; concentration range: 10-10000 nM
Quick one: just the number, no unit, thanks!

Previously resolved entries follow.
compound	differential drug sensitivity score
C[C@@H]1COCCN1c1cc(-c2ccnn2C)c2ccnc(-c3ccn[nH]3)c2n1 [Elimusertib]	-5.1
N.N.[Cl][Pt][Cl] [Cisplatin]	-2.4
Cc1c(C(=O)Nc2ccc(N3C[C@@H](C)O[C@@H](C)C3)nc2)cccc1-c1ccc(OC(F)(F)F)cc1 [Sonidegib]	-1.4

Input line: // fetch differential drug sensitivity score given entry CC(C)C[C@H](NC(=O)CNC(=O)c1cc(Cl)ccc1Cl)B(O)O [Ixazomib]
Output line: 9.9

Input line: // fetch differential drug sensitivity score given entry CC[C@@]1(O)C(=O)OCc2c1cc1n(c2=O)Cc2cc3c(CN(C)C)c(O)ccc3nc2-1 [Topotecan]
Output line: -4.9

Input line: // fetch differential drug sensitivity score given entry COC(=O)C[C@](O)(CCCC(C)(C)O)C(=O)O[C@@H]1C(OC)=C[C@]23CCCN2CCc2cc4c(cc2[C@H]13)OCO4 [Homoharringtonine]
Output line: 10

Input line: // fetch differential drug sensitivity score given entry COc1cccc(-c2cc(F)ccc2[C@H]2Cc3nc(N)nc(C)c3C(=O)N2)n1 [HSP-990]
Output line: -4

Input line: // fetch differential drug sensitivity score given entry `Cn1cc(C2=C(c3ccc(Cl)cc3Cl)C(=O)NC2=O)c2ccccc21`
Output line: -1.5
